METHOD: chemical genetic growth profiling, strain panel (AID 1159580);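 also: tested at 20 µM; growth read once vehicle control cultures reached saturation at 30 °C; lower values mean less growth of the strain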
CONDITION_SUMMARY: S. cerevisiae deletion strains, growth OD, locus YLR268W, strain sec22
Screen size: about 5,500 compounds; about 2,000 (36%) were called active. Inconclusive results (about 18%) are left out. Rule as the data show it: active = normalized growth mostly below about 0.91 (no sharp cut-off); inconclusive = no clear call, values can overlap the other calls; inactive = mostly above about 0.92. This is one part of the list.
In this exercise, the only acceptable responses are active, inactive

Before answering, review these 5 worked examples.
COMPOUND	CATEGORY_LABEL
CC(C)=CCCC(C)C1CC[C@@]2(C)C3=C(CC[C@]12C)C1(C)CC[C@H](O)C(C)(C)C1CC3 (some centres not stated)	inactive
COC(=O)c1c(OC)cc2c(c1C)Oc1c(Cl)c(OC(C)=O)c(Cl)c(C)c1C(=O)O2	inactive
COC(=O)c1c(C)c2c(c(C)c1O)OC(=O)c1c(C)c(Cl)c(O)c(Cl)c1O2	inactive
CC(=O)OCC(=O)[C@@]1(O)[C@H](C)CC2C3CCC4=CC(=O)C=C[C@]4(C)[C@@]3(F)[C@@H](O)C[C@@]21C (some centres not stated)	inactive
CN(C)[C@@H]1C(=O)C(C(N)=O)=C(O)[C@@]2(O)C(=O)C3=C(O)c4c(O)ccc(Cl)c4[C@@](C)(O)[C@H]3C[C@@H]12	inactive

Which outcome was assigned to CC(=O)O[C@H]1CCC2(C)C3=C(CCC2C1(C)C)[C@@]1(C)CC[C@@H](C(C)CCC=C(C)C)[C@]1(C)CC3 (some centres not stated) in this test?
inactive

Status in this test for CC(C)=CCCC(C)[C@@H]1CC[C@]2(C)C3=C(CC[C@@]12C)C1(C)CC[C@H](O)C(C)(C)C1CC3 (some centres not stated) ?
inactive

# fetch the recorded call for O=C(NCO)c1cccnc1 here
inactive

Outcome? CC(C)CCCC(C)C1CC[C@@]2(C)C3=C(CC[C@]12C)[C@@]1(C)CC[C@H](O)C(C)(C)C1CC3 (some centres not stated)
inactive

Which outcome was entered for the compound O=C(O)c1ccc(S(=O)(=O)N(Cl)Cl)cc1 in this test?
inactive

Name the outcome recorded for C[C@H]1c2cccc(O)c2C(O)=C2C(=O)[C@]3(O)C(O)=C(C(N)=O)C(=O)[C@@H](N(C)C)[C@@H]3[C@@H](O)[C@@H]21 in the assay.
inactive

Identify the outcome logged in this assay for the compound shown: CCC(C)[C@H]1O[C@]2(C=C[C@@H]1C)C[C@@H]1C[C@@H](C/C=C(\C)[C@@H](OC3C[C@H](OC)C(O[C@H]4C[C@H](OC)[C@@H](O)[C@H](C)O4)[C@H](C)O3)[C@@H](C)/C=C/C=C3\CO[C@@H]4[C@H](O)C(C)=C[C@@H](C(=O)O1)[C@]34O)O2 (some centres not stated)
active
